assay: Toxicokinetics in the 28 day dog study of DIO-902 (with racemic ketoconazole group a); details: male, beagle, plasma, oral, 20 mg/kg, Drug concentration in plasma, dogs, group a: 20 mg/kg oral (after 40 mg/kg days 1-9, pause), day 28, M, 2 h
observationType: concentration at 2 h (ng/mL)
Could you give me the number in ng/mL? Just the number is fine.

Which concentration at 2 h value is on record for CC(=O)N1CCN(c2ccc(OCC3COC(Cn4ccnc4)(c4ccc(Cl)cc4Cl)O3)cc2)CC1 (racemic) [Racemic ketoconazole] ?
280

* * *

Assay: Toxicokinetics of racemic ketoconazole in another 28-day dog study (b)
Conditions: female, beagle, dog, plasma, po, 10 mg/kg, Tmax Range, dogs, study b, powder, 10 mg/kg oral, day 28, F
Text: Two groups of three male and three female dogs per group were studied. Toxicokinetic samples were collected on Day 1 and during Weeks 2 and 4. […] For the following Table: *Days of treatment.
observationType: Tmax

Which Tmax value is on record for CC(=O)N1CCN(c2ccc(OCC3COC(Cn4ccnc4)(c4ccc(Cl)cc4Cl)O3)cc2)CC1 (racemic) [Racemic ketoconazole] ?
1 to 2 h

* * *

test: Toxicokinetics in the 28 day dog study of DIO-902 (with racemic ketoconazole group a); conditions: male, beagle, plasma, po, 20 mg/kg, Drug concentration in plasma, dogs, 20 mg/kg oral, day 28, M, 8 h
observationType: concentration at 8 h (ng/mL)
Could you give me the number in ng/mL? Just the number is fine.

Which concentration at 8 h value is on record for CC(=O)N1CCN(c2ccc(OC[C@@H]3CO[C@@](Cn4ccnc4)(c4ccc(Cl)cc4Cl)O3)cc2)CC1 ?
5860

* * *

experiment: Toxicokinetics in the 28 day dog study of DIO-902 (with racemic ketoconazole group a); settings: male, beagle, plasma, po, 6.5 mg/kg, Drug concentration in plasma, dogs, 6.5 mg/kg oral, day 28, M, 2 h
observationType: concentration at 2 h (ng/mL)
Could you give me the number in ng/mL? Just the number is fine.

Which concentration at 2 h value is on record for CC(=O)N1CCN(c2ccc(OC[C@@H]3CO[C@@](Cn4ccnc4)(c4ccc(Cl)cc4Cl)O3)cc2)CC1 ?
1390

* * *

test: Toxicokinetics of racemic ketoconazole in another 28-day dog study (b); conditions: male, beagle, dog, plasma, po, 10 mg/kg, Drug concentration in plasma, dogs, study b, powder, 10 mg/kg oral, day 28, M, 12 h
observationType: concentration at 12 h (µg/mL)
Could you give me the number in µg/mL? Just the number is fine.

Which concentration at 12 h value is on record for CC(=O)N1CCN(c2ccc(OCC3COC(Cn4ccnc4)(c4ccc(Cl)cc4Cl)O3)cc2)CC1 (racemic) [Racemic ketoconazole] ?
0.43

* * *

assay: Toxicokinetics of racemic ketoconazole in another 28-day dog study (b); settings: female, beagle, dog, plasma, po, 40 mg/kg, Cmax, dogs, study b, powder, 40 mg/kg oral, day 1, F
observationType: Cmax (ng/mL)
Could you give me the number in ng/mL? Just the number is fine.

Which Cmax value is on record for CC(=O)N1CCN(c2ccc(OCC3COC(Cn4ccnc4)(c4ccc(Cl)cc4Cl)O3)cc2)CC1 (racemic) [Racemic ketoconazole] ?
6230

* * *

Test: Toxicokinetics of racemic ketoconazole in another 28-day dog study (b)
Conditions: female, beagle, dog, plasma, po, 40 mg/kg, Drug concentration in plasma, dogs, study b, powder, 40 mg/kg oral, day 1, F, 2 h
Excerpt: Two groups of three male and three female dogs per group were studied. Toxicokinetic samples were collected on Day 1 and during Weeks 2 and 4. […] For the following Table: *Days of treatment.
observationType: concentration at 2 h (ng/mL)
Could you give me the number in ng/mL? Just the number is fine.

Which concentration at 2 h value is on record for CC(=O)N1CCN(c2ccc(OCC3COC(Cn4ccnc4)(c4ccc(Cl)cc4Cl)O3)cc2)CC1 (racemic) [Racemic ketoconazole] ?
5760

* * *

test: Toxicokinetics in the 28 day dog study of DIO-902 (with racemic ketoconazole group a); conditions: male, beagle, plasma, po, 2 mg/kg, AUC(0-12), dogs, 2 mg/kg oral, day 28, M
observationType: AUC(0-t)

Which AUC(0-t) value is on record for CC(=O)N1CCN(c2ccc(OC[C@@H]3CO[C@@](Cn4ccnc4)(c4ccc(Cl)cc4Cl)O3)cc2)CC1 [DIO-902] ?
3260 ng·h/mL

* * *

assay: Toxicokinetics in the 28 day dog study of DIO-902 (with racemic ketoconazole group a); details: female, beagle, plasma, po, 20 mg/kg, Drug concentration in plasma, dogs, 20 mg/kg oral, day 28, F, 4 h
observationType: concentration at 4 h (ng/mL)
Could you give me the number in ng/mL? Just the number is fine.

Which concentration at 4 h value is on record for CC(=O)N1CCN(c2ccc(OC[C@@H]3CO[C@@](Cn4ccnc4)(c4ccc(Cl)cc4Cl)O3)cc2)CC1 [DIO-902] ?
6420

* * *

assay: Toxicokinetics in the 28 day dog study of DIO-902 (with racemic ketoconazole group a); conditions: male, beagle, plasma, po, 6.5 mg/kg, Drug concentration in plasma, dogs, 6.5 mg/kg oral, day 1, M, 4 h
observationType: concentration at 4 h
Write the numeric value and append its unit.

Which concentration at 4 h value is on record for CC(=O)N1CCN(c2ccc(OC[C@@H]3CO[C@@](Cn4ccnc4)(c4ccc(Cl)cc4Cl)O3)cc2)CC1 ?
1250 ng/mL

* * *

assay: Toxicokinetics in the 28 day dog study of DIO-902 (with racemic ketoconazole group a); details: male, beagle, plasma, po, 2 mg/kg, Drug concentration in plasma, dogs, 2 mg/kg oral, day 28, M, 8 h
observationType: concentration at 8 h

Which concentration at 8 h value is on record for CC(=O)N1CCN(c2ccc(OC[C@@H]3CO[C@@](Cn4ccnc4)(c4ccc(Cl)cc4Cl)O3)cc2)CC1 [DIO-902] ?
< 250 ng/mL

* * *

assay: Toxicokinetics in the 28 day dog study of DIO-902 (with racemic ketoconazole group a); details: male, beagle, plasma, po, 6.5 mg/kg, AUC(0-12), dogs, 6.5 mg/kg oral, day 28, M
observationType: AUC(0-t) (ng·h/mL)
Could you give me the number in ng·h/mL? Just the number is fine.

Which AUC(0-t) value is on record for CC(=O)N1CCN(c2ccc(OC[C@@H]3CO[C@@](Cn4ccnc4)(c4ccc(Cl)cc4Cl)O3)cc2)CC1 [DIO-902] ?
14600

* * *

Experiment: Toxicokinetics of racemic ketoconazole in another 28-day dog study (b)
Conditions: female, beagle, dog, plasma, po, 10 mg/kg, Drug concentration in plasma, dogs, study b, powder, 10 mg/kg oral, day 28, F, 8 h
Text: Two groups of three male and three female dogs per group were studied. Toxicokinetic samples were collected on Day 1 and during Weeks 2 and 4. […] For the following Table: *Days of treatment.
observationType: concentration at 8 h (ng/mL)
Could you give me the number in ng/mL? Just the number is fine.

Which concentration at 8 h value is on record for CC(=O)N1CCN(c2ccc(OCC3COC(Cn4ccnc4)(c4ccc(Cl)cc4Cl)O3)cc2)CC1 (racemic) [Racemic ketoconazole] ?
850

* * *

assay: Toxicokinetics of racemic ketoconazole in another 28-day dog study (b); details: female, beagle, dog, plasma, po, 40 mg/kg, Drug concentration in plasma, dogs, study b, powder, 40 mg/kg oral, day 1, F, 1 h
observationType: concentration at 1 h

Which concentration at 1 h value is on record for CC(=O)N1CCN(c2ccc(OCC3COC(Cn4ccnc4)(c4ccc(Cl)cc4Cl)O3)cc2)CC1 (racemic) [Racemic ketoconazole] ?
5.65 µg/mL

* * *

assay: Toxicokinetics in the 28 day dog study of DIO-902 (with racemic ketoconazole group a); settings: male, beagle, plasma, po, 40 mg/kg, Drug concentration in plasma, dogs, group a: 40 mg/kg oral, day 1, M, 2 h
observationType: concentration at 2 h (ng/mL)
Could you give me the number in ng/mL? Just the number is fine.

Which concentration at 2 h value is on record for CC(=O)N1CCN(c2ccc(OCC3COC(Cn4ccnc4)(c4ccc(Cl)cc4Cl)O3)cc2)CC1 (racemic) [Racemic ketoconazole] ?
8870

* * *

assay: Toxicokinetics in the 28 day dog study of DIO-902 (with racemic ketoconazole group a); details: female, beagle, plasma, po, 40 mg/kg, Drug concentration in plasma, dogs, group a: 40 mg/kg oral, day 1, F, 0 h;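 note: beagle dogs dosed orally once daily within a 28-day GLP study, 3 animals per sex per group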
observationType: concentration at 0 h

Which concentration at 0 h value is on record for CC(=O)N1CCN(c2ccc(OCC3COC(Cn4ccnc4)(c4ccc(Cl)cc4Cl)O3)cc2)CC1 (racemic) [Racemic ketoconazole] ?
< 250 ng/mL

* * *

assay: Toxicokinetics of racemic ketoconazole in another 28-day dog study (b); details: female, beagle, dog, plasma, po, 10 mg/kg, Drug concentration in plasma, dogs, study b, powder, 10 mg/kg oral, day 28, F, 0 h
observationType: concentration at 0 h

Which concentration at 0 h value is on record for CC(=O)N1CCN(c2ccc(OCC3COC(Cn4ccnc4)(c4ccc(Cl)cc4Cl)O3)cc2)CC1 (racemic) [Racemic ketoconazole] ?
< 250 ng/mL
